# target or test system: Nuclear factor erythroid 2-related factor 2 (Homo sapiens)
# assay comment: Activation of Nrf2 in human HepG2-ARE-C8 cells assessed as induction of ARE-mediated luciferase activity at 0.01 uM after 24 hrs by luciferase reporter gene assay relative to control
# Format: cell-based
Measured Activity determines class: low (below 1), intermediate (1 to below 2), high (2 or more)

given_smiles=Fc1ccc(-c2noc(-c3ccc(F)c(F)c3)n2)cc1 classification=intermediate
given_smiles=Cc1ccc(-c2noc(-c3ccc(F)c(F)c3)n2)cn1 classification=high
given_smiles=Fc1ccc(-c2nc(-c3ccc4nc[nH]c4c3)no2)cc1Cl classification=intermediate
given_smiles=Fc1ccc(-c2nc(-c3ccc(-c4ccccc4)cc3)no2)cc1F classification=intermediate
given_smiles=Fc1ccc(-c2nc(-c3ncccc3F)no2)cc1F classification=intermediate

[Q] Input `Fc1cccc(-c2nc(-c3ccc4nc[nH]c4c3)no2)c1` ; output its category
[A] intermediate

[Q] Sort `Fc1ccc(-c2nc(-c3ccccc3Br)no2)cc1F` into one of the categories.
[A] low

[Q] Which of the defined bands does the recorded Activity of `Fc1ccc(-c2noc(-c3ccc(F)c(F)c3)n2)nc1` sit within?
[A] low

[Q] Hello team, could you let me know which band the following compound falls into: `COc1cccc(-c2noc(-c3ccc(F)c(F)c3)n2)c1`
[A] intermediate

[Q] Which class does `Fc1ccc(-c2nc(-c3cccc4[nH]ccc34)no2)cc1F` fall in?
[A] low

[Q] GET /class?item= `Fc1ccc(F)c(-c2nc(-c3ccc4nc[nH]c4c3)no2)c1`
[A] high

* * *

# target or test system: UniProtKB Q16236
# Sequence (Q16236 whole entry): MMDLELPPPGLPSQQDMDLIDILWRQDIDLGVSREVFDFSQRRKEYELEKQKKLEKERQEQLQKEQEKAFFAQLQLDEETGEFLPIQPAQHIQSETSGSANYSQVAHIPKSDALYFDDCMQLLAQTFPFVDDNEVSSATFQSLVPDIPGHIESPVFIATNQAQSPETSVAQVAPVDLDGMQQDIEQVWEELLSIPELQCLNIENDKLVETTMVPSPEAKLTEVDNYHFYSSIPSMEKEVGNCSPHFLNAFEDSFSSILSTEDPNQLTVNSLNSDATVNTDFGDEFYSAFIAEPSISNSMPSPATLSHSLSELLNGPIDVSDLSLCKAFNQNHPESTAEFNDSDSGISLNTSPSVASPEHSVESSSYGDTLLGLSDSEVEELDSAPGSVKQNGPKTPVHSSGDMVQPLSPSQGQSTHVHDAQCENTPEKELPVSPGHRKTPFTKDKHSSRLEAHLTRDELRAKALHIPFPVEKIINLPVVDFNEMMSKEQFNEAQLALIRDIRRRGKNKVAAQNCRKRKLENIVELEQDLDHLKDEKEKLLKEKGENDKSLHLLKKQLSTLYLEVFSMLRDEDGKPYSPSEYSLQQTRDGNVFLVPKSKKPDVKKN
# assay comment: Activation of Nrf2 in human HepG2-ARE-C8 cells assessed as induction of ARE-mediated luciferase activity at 40 uM after 24 hrs by luciferase reporter gene assay relative to control
# Format: cell-based
Examples of compounds with documented Activity follow.
Number, no unit, nothing else.

A selection of reference data follows.
given_smiles=Fc1ccc(-c2nc(-c3ccccc3F)no2)cc1F target_or_test_system="UniProtKB Q16236" test_result=5.91
given_smiles=Fc1ccc(-c2nc(-c3ccc4nc[nH]c4c3)no2)c(F)c1 target_or_test_system="UniProtKB Q16236" test_result=7.34
given_smiles=Fc1ccc(-c2nc(-c3ccc4ccccc4c3)no2)cc1F target_or_test_system="UniProtKB Q16236" test_result=1.96
given_smiles=Cc1ccc(-c2noc(-c3ccc(F)c(F)c3)n2)cc1 target_or_test_system="UniProtKB Q16236" test_result=6.62

Measured Activity of `CC(C)(C)c1ccc(-c2noc(-c3ccc(F)c(F)c3)n2)cc1` : 13.2

# Activity (compound: `Fc1ccc(-c2nc(-c3ccccc3Br)no2)cc1F` ) is 2.63

Quick note, Activity for `Clc1ccc(-c2nc(-c3ccc4nc[nH]c4c3)no2)cc1` landed at 18.5

The compound `Fc1cccc(-c2noc(-c3ccc(F)c(F)c3)n2)c1` showed Activity equal to 3.45

Entry under test: `COc1cccc(-c2noc(-c3ccc(F)c(F)c3)n2)c1` . Its Activity was 15.2

For reference, reported Activity for `Fc1ccc(-c2nc(-c3ccc(Cl)cc3)no2)cc1F` stands at 8.29

* * *

# target or test system: Nuclear factor erythroid 2-related factor 2 (Homo sapiens)
# assay comment: Activation of Nrf2 in human HepG2-ARE-C8 cells assessed as induction of ARE-mediated luciferase activity at 20 uM after 24 hrs by luciferase reporter gene assay relative to control
# Assay type: cell-based
value type: Activity
No unit in the answer, please; the number alone is enough.

# example entries with known answers
given_smiles=Cc1cccc(-c2noc(-c3ccc(F)c(F)c3)n2)n1 target_or_test_system="Nuclear factor erythroid 2-related factor 2 (Homo sapiens)" test_result=3.96
given_smiles=Fc1ccc(-c2noc(-c3ccc(F)c(F)c3)n2)cc1 target_or_test_system="Nuclear factor erythroid 2-related factor 2 (Homo sapiens)" test_result=3.75
given_smiles=COc1cccc(-c2noc(-c3ccc(F)c(F)c3)n2)c1 target_or_test_system="Nuclear factor erythroid 2-related factor 2 (Homo sapiens)" test_result=14.2
given_smiles=Fc1ccc(-c2nc(-c3ccc4nc[nH]c4c3)no2)c(Cl)c1 target_or_test_system="Nuclear factor erythroid 2-related factor 2 (Homo sapiens)" test_result=11.8
given_smiles=Cc1ccc(-c2noc(-c3ccc(F)c(F)c3)n2)cc1 target_or_test_system="Nuclear factor erythroid 2-related factor 2 (Homo sapiens)" test_result=2.51

Kindly note: Nuclear factor erythroid 2-related factor 2 (Homo sapiens), `Fc1cc(F)c(-c2nc(-c3ccc4nc[nH]c4c3)no2)cc1F` , Activity value reported: 3.95

Case `Fc1ccc(-c2noc(-c3ccc(F)c(F)c3)n2)nc1` , Nuclear factor erythroid 2-related factor 2 (Homo sapiens), Activity recorded as 2.95
